# System: CP265
# experimental-protocol: qHTS profiling for inhibitors of Plasmodium falciparum proliferation (AID 504749);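 note: 0% = DMSO vehicle and full inhibition = artemisinin control; nearly all actives have a fitted effect of over 60% in size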
# stated-conditions: P. falciparum in erythrocytes, SYBR Green DNA, 72 h; series mostly up to 28.7 µM
Inconclusive results are not listed. Calls of active or inactive are those of the source. Calls come from the whole dose curve; as a rule, active = well fitted inhibition curve with a large enough effect; inconclusive = small, poorly fitted or top-dose-only effect; inactive = flat fitted curve, though single readings scatter.
Pick from yes (1) for active, no (0) for inactive when you respond.

# count of solved cases: 2
molecule="CCOC(=O)NC(O)C(Cl)(Cl)Cl (configuration not stated)" target_system=CP265 class_assignment="no (0)"
molecule=CCNc1nc(Cl)nc(NCC)n1 target_system=CP265 class_assignment="no (0)"

Recorded test outcome, item CCS(=O)(=O)C(C)(C)S(=O)(=O)CC
no (0)

And what about the molecule C[C@H]1C(=O)O[C@@H]2CCN3CC=C(COC(=O)[C@](C)(O)[C@]1(C)O)[C@H]23 ?
no (0)

And what about the molecule CCC(=O)O[C@H]1CC[C@H]2[C@@H]3CCC4=CC(=O)CC[C@]4(C)[C@H]3CC[C@]12C ?
no (0)

And what about the molecule CNC(=O)NC(O)C(Cl)(Cl)Cl (configuration not stated) ?
no (0)

---

# experimental-protocol: qHTS assay to identify small molecule inhibitors of chordoma cells - UCH-1 (AID 1259355); note: nearly all actives have a fitted effect of over 55% in size
# stated-conditions: UCH-1 chordoma viability, CellTiter-Glo, 48 h, combination; series mostly up to 46.1 µM
Records with an inconclusive call do not appear. Activity calls are given as the source filed them. Calls come from the whole dose curve; as a rule, active = well fitted cell-killing curve with a large enough effect; inconclusive = small, poorly fitted or top-dose-only effect, or effect the other way; inactive = no such curve, though single readings can be large or run the other way.
Pick from active, inactive when you respond.

# count of solved cases: 10
molecule=CC[n+]1c(-c2ccccc2)c2cc(N)ccc2c2ccc(N)cc21 class_assignment=active
molecule=C[C@H]1C(=O)O[C@@H]2CCN3CC=C(COC(=O)[C@](C)(O)[C@]1(C)O)[C@H]23 class_assignment=inactive
molecule=Cc1c(Cl)c(=O)oc2cc(OP(=O)(OCCCl)OCCCl)ccc12 class_assignment=inactive
molecule=COc1ccc(CN2CCNCC2)c(OC)c1OC class_assignment=inactive
molecule=CCC1(CC)C(=O)NC(=O)NC1=O class_assignment=inactive
molecule=C[C@]12C=CC(=O)C=C1CC[C@@H]1[C@@H]2CC[C@@]2(C)[C@H]1CC[C@]2(C)O class_assignment=inactive
molecule=NCc1cccnc1 class_assignment=inactive
molecule=O=C(O)c1nn(Cc2ccc(Cl)cc2Cl)c2ccccc12 class_assignment=inactive
molecule="COP(=O)(OC)C(O)C(Cl)(Cl)Cl (stereo not drawn)" class_assignment=inactive
molecule="N#Cc1nn(-c2c(Cl)cc(C(F)(F)F)cc2Cl)c(N)c1S(=O)C(F)(F)F (stereo not drawn)" class_assignment=inactive

Recorded test outcome, item CC(C)(O)C(Cl)(Cl)Cl
inactive

And what about the molecule C=CCN1CC[C@]23CCCC[C@H]2[C@H]1Cc1ccc(O)cc13 ?
inactive

And what about the molecule CN1C[C@@H](NS(=O)(=O)N(C)C)C[C@@H]2c3cccc4c3c(cn4C)C[C@H]21 ?
inactive

---

# target-system: Nucleoprotein (Lymphocytic choriomeningitis virus (strain Armstrong)) (UniProt P09992)
# Sequence (P09992 whole entry, looked up): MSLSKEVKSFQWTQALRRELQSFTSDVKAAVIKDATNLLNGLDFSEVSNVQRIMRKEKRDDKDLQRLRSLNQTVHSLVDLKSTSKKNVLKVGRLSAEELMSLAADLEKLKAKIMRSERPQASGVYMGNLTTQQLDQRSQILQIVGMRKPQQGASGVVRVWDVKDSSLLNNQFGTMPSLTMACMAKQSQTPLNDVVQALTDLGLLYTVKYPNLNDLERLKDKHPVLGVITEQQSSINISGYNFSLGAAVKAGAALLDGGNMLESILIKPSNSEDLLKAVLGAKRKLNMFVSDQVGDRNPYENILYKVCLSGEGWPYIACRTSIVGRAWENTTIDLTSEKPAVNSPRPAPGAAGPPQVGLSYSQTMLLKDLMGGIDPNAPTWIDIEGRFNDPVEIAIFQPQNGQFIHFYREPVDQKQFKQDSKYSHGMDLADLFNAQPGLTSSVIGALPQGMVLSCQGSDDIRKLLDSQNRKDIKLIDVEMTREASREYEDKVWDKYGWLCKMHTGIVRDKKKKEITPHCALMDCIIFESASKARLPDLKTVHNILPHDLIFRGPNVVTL
# experimental-protocol: qHTS for Inhibitors of the Functional Ribonucleoprotein Complex (vRNP) of Lymphocytic Choriomeningitis Arenaviruses (LCMV): LCMV Primary Screen - GLuc reporter signal (AID 1347086); note: nearly all actives have a fitted effect of over 70% in size
# stated-conditions: LCMV minigenome vRNP cell assay, Gaussia luciferase reporter; series mostly up to 57.5 µM
Records with an inconclusive call do not appear. Activity calls are given as the source filed them. The call rests on the fitted dose curve.
attribute-measured: outcome

Below are worked cases with known answers.
compound=Cc1nc(C2CCCCC2)c(-c2ccc(S(N)(=O)=O)c(F)c2)o1 attribute_measured=outcome value_reported=inactive
compound=CN1CCC(N(Cc2cccs2)c2ccccc2)CC1 attribute_measured=outcome value_reported=inactive
compound=O=C(O)c1ccc(OCCN2CCCCC2)cc1 attribute_measured=outcome value_reported=inactive
compound="C=CCSCC1Nc2cc(Cl)c(S(N)(=O)=O)cc2S(=O)(=O)N1 (stereo not drawn)" attribute_measured=outcome value_reported=inactive
compound=CC(C)(O)C(Cl)(Cl)Cl attribute_measured=outcome value_reported=inactive
compound="Clc1ccc(CSC(Cn2ccnc2)c2ccc(Cl)cc2Cl)cc1 (stereo not drawn)" attribute_measured=outcome value_reported=inactive
compound="C=C(C)C(=O)OCC(O)CO (stereo not drawn)" attribute_measured=outcome value_reported=inactive
compound=COc1ccc2c(c1)c(CC(=O)OCC(=O)O)c(C)n2C(=O)c1ccc(Cl)cc1 attribute_measured=outcome value_reported=inactive

Provide the documented outcome with Nucleoprotein (Lymphocytic choriomeningitis virus (strain Armstrong)) (UniProt P09992) as the system for NCC1CCC(C(=O)Oc2ccc(CCC(=O)O)cc2)CC1 (stereo not drawn)
inactive

And what about the compound CCC1Nc2cc(Cl)c(S(N)(=O)=O)cc2S(=O)(=O)N1 (stereo not drawn) ?
inactive

And what about the compound Oc1ccc([C@H]2CNCc3c2ccc(O)c3O)cc1O ?
inactive

And what about the compound CCC(C(=O)OCCN1CCOC(c2ccccc2)C1C)c1ccccc1 (stereo not drawn) ?
inactive

And what about the compound OCC(CO)N[C@H]1C[C@](O)(CO)[C@@H](O)[C@H](O)[C@H]1O ?
inactive

And what about the compound C[C@]12C=CC(=O)C=C1CC[C@@H]1[C@@H]2CC[C@@]2(C)[C@H]1CC[C@]2(C)O ?
inactive

And what about the compound O=C(O)/C=C/c1ccc(Cn2ccnc2)cc1 ?
inactive

And what about the compound COc1ccc2cc1Oc1ccc(cc1)C[C@H]1c3c(cc4c(c3Oc3cc5c(cc3OC)CCN(C)[C@@H]5C2)OCO4)CCN1C ?
inactive

And what about the compound CNc1c2c(nn1C)CCCC2 ?
inactive

And what about the compound CC(C(O)c1ccc(O)cc1)N1CCC(Cc2ccccc2)CC1 (stereo not drawn) ?
inactive

And what about the compound CC(C)(Oc1ccc(CCNC(=O)c2ccc(Cl)cc2)cc1)C(=O)O ?
inactive

And what about the compound COc1cc(C[C@@H](C)N)c(OC)cc1C ?
inactive

And what about the compound O=C(CS)Nc1ccccc1 ?
inactive

And what about the compound CCCOc1ccc2nc(NC(=O)OC)[nH]c2c1 ?
inactive

And what about the compound CCOC(=O)c1ccc(OC(=O)CCCCCN=C(N)N)cc1 ?
inactive

And what about the compound CCc1oc2ccccc2c1C(=O)c1cc(Br)c(O)c(Br)c1 ?
inactive

And what about the compound OC(CN1CCC(Cc2ccc(F)cc2)CC1)c1ccc(Cl)cc1 (stereo not drawn) ?
inactive

And what about the compound CC1=C(C)C(=O)C(CCCCC#CCCCC#CCO)=C(C)C1=O ?
inactive

And what about the compound NC[C@H]1O[C@H](O[C@H]2[C@H](O)[C@@H](O[C@H]3O[C@H](CO)[C@@H](O)[C@H](N)[C@H]3O)[C@H](N)C[C@@H]2N)[C@H](N)[C@@H](O)[C@@H]1O ?
inactive

And what about the compound COP(=S)(OC)Oc1ccc(S(N)(=O)=O)cc1 ?
inactive

And what about the compound O=C(O)Cn1c(C(=O)Nc2nc(-c3ccccc3Cl)cs2)cc2ccccc21 ?
inactive
